System: Bacillus subtilis
Assay: Antibacterial activity against Bacillus subtilis MTCC 441 after 24 hrs by agar diffusion method; also: test concentration or dose not given here
Format: functional
Recorded Metric: inhibition zone (IZ) (mm)
Give the number; mm is assumed, so skip it.

# Compound, Assay System, Measure Unit, Reported Value
measured = [
    ("CCCCc1nc(Cl)c(C2CC(c3ccccc3O)=NN2c2nc(-c3ccc(Cl)cc3)cs2)[nH]1 (configuration not stated)", "Bacillus subtilis", "mm", 16),
    ("CCCCc1nc(Cl)c(C2CC(c3cc(Cl)c(C)c(Br)c3O)=NN2c2nc(-c3ccc(Cl)cc3)cs2)[nH]1 (configuration not stated)", "Bacillus subtilis", "mm", 18),
    ("CN(C)[C@@H]1C(O)=C(C(N)=O)C(=O)[C@@]2(O)C(O)=C3C(=O)c4c(O)cccc4[C@@](C)(O)[C@H]3C[C@@H]12", "Bacillus subtilis", "mm", 32),
    ("CCCCc1nc(Cl)c(C2CC(c3cc(Cl)cc(I)c3O)=NN2c2nc(-c3ccc(Cl)cc3)cs2)[nH]1 (configuration not stated)", "Bacillus subtilis", "mm", 21),
    ("CCCCc1nc(Cl)c(C2CC(c3cc(C)ccc3O)=NN2c2nc(-c3ccc(Cl)cc3)cs2)[nH]1 (configuration not stated)", "Bacillus subtilis", "mm", 12),
    ("CCCCc1nc(Cl)c(C2CC(c3cc(Cl)c(C)c(I)c3O)=NN2c2nc(-c3ccc(Cl)cc3)cs2)[nH]1 (configuration not stated)", "Bacillus subtilis", "mm", 19),
    ("CCCCc1nc(Cl)c(C2CC(c3cc(Cl)cc(Cl)c3O)=NN2c2nc(-c3ccc(Cl)cc3)cs2)[nH]1 (configuration not stated)", "Bacillus subtilis", "mm", 22),
    ("CCCCc1nc(Cl)c(C2CC(c3cc(C)cc(Br)c3O)=NN2c2nc(-c3ccc(Cl)cc3)cs2)[nH]1 (configuration not stated)", "Bacillus subtilis", "mm", 14),
    ("CCCCc1nc(Cl)c(C2CC(c3ccc(N)cc3)=NN2c2nc(-c3ccc(Cl)cc3)cs2)[nH]1 (configuration not stated)", "Bacillus subtilis", "mm", 8),
    ("CCCCc1nc(Cl)c(C2CC(c3cc(I)cc(I)c3O)=NN2c2nc(-c3ccc(Cl)cc3)cs2)[nH]1 (configuration not stated)", "Bacillus subtilis", "mm", 20),
]

Query block: Using the record for CCCCc1nc(Cl)c(C2CC(c3cc(Cl)cc(Br)c3O)=NN2c2nc(-c3ccc(Cl)cc3)cs2)[nH]1 (configuration not stated) , report its inhibition zone (IZ).
Result block: 15

Query block: Using the record for CCCCc1nc(Cl)c(C2CC(c3ccc(OC)cc3)=NN2c2nc(-c3ccc(Cl)cc3)cs2)[nH]1 (configuration not stated) , report its inhibition zone (IZ).
Result block: 16
